# protocol.details: Therapeutic index, ratio of cytotoxic TC50 for mouse HT22 cells to neuroprotective PD50 for mouse HT22 cells
# Assay type: cell-based, HT-22
# stated.conditions: read-out: TI
property.label: selectivity ratio

Example cases with answers are listed next.
>>> meas_value("O=C1C=C(NCc2cccc(Cl)c2)C(=O)c2ccccc21")
"> 3230"
>>> meas_value("O=C1C=C(NCc2ccc(Cl)c(Cl)c2)C(=O)c2ccccc21")
"> 2170"
>>> meas_value("O=C1C=C(NCc2ccccc2)C(=O)c2ccccc21")
"> 1140"
>>> meas_value("Cc1ccc(CNC2=CC(=O)c3ccccc3C2=O)cc1")
"> 1520"
>>> meas_value("O=C1C=C(NCC2CCCCC2)C(=O)c2ccccc21")
"> 1850"
>>> meas_value("CN(C)C1=CC(=O)c2ccccc2C1=O")
"> 407"
>>> meas_value("O=C1C=C(NCc2ccc(Cl)cc2)C(=O)c2ccccc21")
"> 1700"

Now for another entry.
Which selectivity ratio is listed for O=C1C=C(NCc2cccc(C(F)(F)F)c2)C(=O)c2ccccc21 ?
> 2220

Attribution: ChEMBL document CHEMBL2331435
